Each entry below carries its recorded normalized growth.
experiment: chemical genetic growth profiling, strain panel (AID 1159580);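 further: tested at 20 µM; growth read once vehicle control cultures reached saturation at 30 °C; 1 = growth at the plate median or of vehicle wells; lower values mean less growth of the strain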
assay.conditions: S. cerevisiae deletion strains, growth OD, locus YLR370C, strain arc18, active compounds read low
Hit rate of the full screen: of about 5,500 compounds, about 2,000 (36%) were called active. Not shown: some 18% with an inconclusive outcome. Some of the results follow.

compound	normalized growth
CCCCC[C@H](CC(=O)NO)C(=O)N[C@H](C(=O)N1CCC[C@H]1CO)C(C)C	1.01
CC1(C)C(O)CC(O)C2(C)C1CC(O)C1(C)C2CCC2(C)C(c3ccoc3)OC(=O)C3OC321 (stereo not given)	0.981
COc1c(Cl)ccc(Cl)c1C(=O)O	0.986
CO[C@]12C[C@@H](COC(=O)c3cncc(Br)c3)CN(C)[C@@H]1Cc1cn(C)c3cccc2c13	0.985
CCCCS(=N)(=O)CCC(N)C(=O)O (stereo not given)	0.99

From: PubChem BioAssay AID1159580
